Attribution: ChEMBL document CHEMBL3352803

Biological target: Cannabinoid receptor 1 (Homo sapiens)
Sequence (P21554 whole entry): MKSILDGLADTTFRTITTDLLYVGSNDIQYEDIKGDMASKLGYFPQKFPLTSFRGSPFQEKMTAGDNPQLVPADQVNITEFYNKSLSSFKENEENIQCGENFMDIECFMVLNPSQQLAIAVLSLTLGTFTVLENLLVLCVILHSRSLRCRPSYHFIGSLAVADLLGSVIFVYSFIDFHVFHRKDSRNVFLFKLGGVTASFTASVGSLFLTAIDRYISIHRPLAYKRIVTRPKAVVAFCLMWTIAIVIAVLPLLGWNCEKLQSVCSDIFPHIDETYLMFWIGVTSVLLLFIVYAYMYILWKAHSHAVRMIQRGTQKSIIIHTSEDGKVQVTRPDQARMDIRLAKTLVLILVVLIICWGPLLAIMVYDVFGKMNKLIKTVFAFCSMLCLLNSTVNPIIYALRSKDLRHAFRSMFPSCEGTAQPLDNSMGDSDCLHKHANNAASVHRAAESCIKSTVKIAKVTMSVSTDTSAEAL
Assay: Inverse agonist activity at human CB1 receptor
assay-endpoint: IC50 (nM)
One number for each entry, in nM.

| compound | unit-info | IC50 |
| --- | --- | --- |
| CCCCCCc1nc(-c2ccc(Cl)cc2)n(-c2ccc(Cl)cc2Cl)n1 | nM | 631 |

What measured IC50 is associated with `CCc1c(C(=O)NN2CCCCC2)nn(-c2ccc(Cl)cc2Cl)c1-c1ccc(C#Cc2ccc(C(F)(F)F)cc2)s1` on Cannabinoid receptor 1 (Homo sapiens)? 8.5

###

System: Brain
Experiment: Drug uptake in mouse brain
Assay type: ADME, tissue-based
Settings: in vivo, read-out: Drug uptake
assay-endpoint: concentration (nM)
Answers are plain numbers, in nM.

What measured concentration is associated with `Cc1c(C(=O)NN2CCS(=O)(=O)CC2)nn(-c2ccc(Cl)cc2Cl)c1-c1ccc(C#CCCC#N)cc1` on Brain? 50

###

Experiment: Lipophilicity, log D of the compound
Type: physicochemical
Settings: octanol/water
assay-endpoint: logD
Answers are plain numbers.

May I ask what logD has been recorded for CC1(C)C(=O)N(c2ccc(F)c(C(F)(F)F)c2)C(=O)C1Cc1ccc(F)cc1NC(=O)Nc1ccc(S(N)(=O)=O)cc1 (stereo unspecified) ? 3.66
